# Tested on: HL-60(TB) leukemia
# protocol.summary: NCI-60 one-dose screen, 48 h (100 = growth as untreated, 0 = no growth, -100 = all killed)
# measurement.conditions: 10 µM unless noted
This is part of a sample that, as a whole, favours compounds with a hit. Of some 83,000 tested, about 20% had one in any assay.
measurement.name: growth (%)

- NC1=NN=C(N)C1=Cc1cc2ccccc2n2nnnc12: 96.8
- COc1cc(C(=O)/C=C/c2c(-c3cccs3)nc3sccn23)cc(OC)c1OC: 1.04
- Cc1ccc(C2=NN(c3ccc(S(=O)(=O)NC(=O)NCc4ccccc4)cc3)C(c3ccc(N(C)C)cc3)C2)c(C)c1 (stereo not drawn): -1.6

====

# Tested on: HL-60(TB) leukemia
# protocol.summary: NCI-60 one-dose screen, 48 h
# measurement.conditions: 10 µM unless noted
The panel holds about 83,000 compounds, 20% with a hit somewhere; the sample as a whole holds those more often. Active and inactive are the calls of the source. How the source made its calls: active means growth percent below 10; inactive means the rest.
Outcome codes: active, inactive

* Oc1c(Cl)cc(Cl)c2ccc(CN3CCNCC3)nc12 | inactive
* COc1ccc(Nc2ncccc2/C=C/C(=O)c2cc(OC)c(OC)c(OC)c2)cc1 | active
* COc1nc2c(c(=O)n1C)CN(c1ccccc1)C(=O)C(C)N2 (configuration not stated) | inactive
* O=C1CSc2ccccc2N1 | inactive
* Cc1nccc2c3ccc(OCc4cn(-c5ccc(Cl)cc5)nn4)cc3n(CCCc3ccccc3)c12 | active
* CN1CCN(Cc2ccc(NC(=O)c3[nH]ncc3Nc3ncnc4sc5c(c34)CCCC5)cc2)CC1 | active
* CCCCC1(O)CCCCC1 | inactive
* [2H]C([2H])([2H])Oc1cc(F)ccc1/C=C/C(=O)/C=C(/C=C/c1ccc(F)cc1OC([2H])([2H])[2H])OB(F)F | inactive
* CCOC(=O)C1CCNC(=O)C1=O (configuration not stated) | inactive
* COc1cc(/C=N/NC(=O)c2cnn3c2NC(c2ccccc2)C3)ccc1OCc1ccccc1 (configuration not stated) | active
* Cc1ccc[n+](CCC(N)=O)c1 | inactive
* O=C(NCc1cccnc1)/C(=C\c1ccc(Br)cc1)S(=O)(=O)c1ccccc1 | inactive
* CCOC(=O)C1(c2ccccc2)CCN(CC(=O)c2ccc(NC(C)=O)cc2)CC1 | inactive
* CCCN1C(=O)/C(=c2\sc3n(c2=O)NC2C(N=3)N(CC)C(=O)N2CC)c2ccccc21 (configuration not stated) | active
* COc1nccc2c(Sc3ccccc3)nc(N)nc12 | inactive
* O=C(O)C1[S][Sb]([CH](C(=O)O)[CH](C(=O)O)[Sb]2[S]C(C(=O)O)C(C(=O)O)[S]2)[S]C1C(=O)O (configuration not stated) | inactive
* NCCn1cc(-c2nc(-c3c[nH]c4ncccc34)cs2)c2ccccc21 | inactive
* CC1SC(c2cccc(Oc3ccccc3)c2)N(CCc2cccs2)C1=O (configuration not stated) | active
* CCOC(=O)CSCCC#N | inactive
* CCSc1nc2ccccc2o1 | inactive
* CC(C)CCSc1nc(NNC(N)=O)c(C#N)c(-c2ccccc2)n1 | inactive
* CN1CCN(c2ccc(-c3cc4c(Nc5ccc(F)c(Cl)c5)ncnn4c3)cc2)CC1 | active
* CN1CCCc2cc(/C=C3\SC(=S)N(C(Cc4ccc(O)cc4)C(=O)O)C3=O)ccc21 (configuration not stated) | inactive
* COc1ccc2c(c1)C/C(=C\c1cc(-c3ccc4c(c3)OCO4)n[nH]1)C2=O | inactive
* CN(C)C[C@@H]1CCn2cc(c3ccccc32)C2=C(C(=O)NC2=O)c2cn(c3ccccc23)CCO1 | active
* Cc1ccc2c(c1)O/C(=C\c1ccc([N+](=O)[O-])o1)C2=O | inactive
* COc1cc(-c2nn(-c3cccc(NC(=O)Nc4ccc(Cl)c(Cl)c4)c3)cc2-c2ccncc2)ccc1Cl | active
* CC/C(=C(/c1ccc(O)cc1)c1ccc(OCCN2CCCCCC2)cc1)c1ccc(Cl)cc1 | inactive
* Cc1cc(C)c2c(c1)N1OC(C2)C[C@H]1/C=C/c1ccccc1 (some centres not stated) | inactive
* COc1ccc(Nc2c3ccccc3nc3ccccc23)cc1 | inactive
* COc1ccc(/C=C/C(=O)/C=C/c2cc3ccc(Cl)cc3[nH]c2=O)cc1 | inactive
* C=C1CCC2C3(C)COC(C)(C)OC3CCC2(C)C1C/C=C1/C(=O)OCC1OC(C)=O (configuration not stated) | active
* CC1SC(c2c(Cl)cccc2Cl)N(NC(=O)c2[nH]c3ccc(F)cc3c2-c2ccccc2)C1=O (configuration not stated) | inactive
* CCN(CC)Cc1cc(Nc2nc(NC3CCC(N(C)C)CC3)c3ccccc3n2)ccc1OC (configuration not stated) | inactive
* O=C(NCCNC(c1ccccc1)C(NCCNC(=O)c1ccccc1)c1ccccc1)c1ccccc1 (configuration not stated) | inactive
* CCCc1nc(C(C)(C)O)c(C(=O)O)n1Cc1ccc(-c2ccccc2-c2nn[nH]n2)cc1 | inactive
* CSCc1ncc(-c2ccc(C(F)(F)F)cc2)c(NC2CCCCCC2)n1 | inactive
